Overview of recorded apparent KD of MS2 coat protein for various sequences
System: MS2 coat protein
Experiment: apparent KD of MS2 coat protein; designed switch direction (-1 OFF switch, 1 ON switch): -1; higher = weaker reporter binding
Conditions: input ligand: none
measured parameter: apparent KD of MS2 coat protein (nM)

chain_sequence="GAGAGAAUCUAGGAUAUAUCAAGAGAAGGAGAGAUAGAAGGAGGGACAUGAGGAUCACCCAUGUCUUCGUGUAG [Default title] (Eterna round: R97, puzzle: Exclusion 6)" value_reported=16
chain_sequence="GCCGUGUUAGGAUAUCGCUCGACGAAUAGUUGUCGGAGGAACGAGAAGGAACAUGAGGAUCACCCAUGUGUCAC [Eternabot (L1) Solution 33] (Eterna round: R97, puzzle: Exclusion 4)" value_reported=21.4
chain_sequence="CCUUAGGGAGGAUAUACAUGAGGAUCACCCAUGUACCGCGGCGCGUUCACACGGGUGGGUAGAAGGCCCUCACU [Colors] (Eterna round: R97, puzzle: Exclusion 3)" value_reported=540

----------
Each item that follows carries a reported apparent KD of MS2 coat protein.
System: MS2 coat protein
Assay: apparent KD of MS2 coat protein; designed switch direction (-1 OFF switch, 1 ON switch): -1; higher = weaker reporter binding
Conditions: input ligand: none
measured parameter: apparent KD of MS2 coat protein (nM)

chain_sequence="UAUUAUCAAGCAAGAUCCCACAUGAGGAUCACCCAUGUGCUCGUCUUAUUUCCGGAAUUAUUGGGCUCUCGUCUAAU [JR_STOV1_Sub093] (Eterna round: R97, puzzle: Sensor, turn-off variant 1)" value_reported=78.2
chain_sequence="AGUGUGUCAGGAUAUUCUAUUAAUUACAUGAGGAUCACCCAUGUGAAUGGACAAGGGUGUGAAGAAGGGACGUGCG [Omei Ex5 A17e] (Eterna round: R97, puzzle: Exclusion 5)" value_reported=381
chain_sequence="ACAUGAGGAUCACCCAUGUGAAAACAAUGGCUGACUUAGAGAUAGGAUAUAUGUGCAUAUCAAACAUAGAAGGGUCAUUACUGG [Deportation 89 - Jieux - Exclusion NG 3] (Eterna round: R96, puzzle: Exclusion NG 3)" value_reported=39.3
chain_sequence="GCCAGUUUUGUGAGGAUAUCGUGCCGUUAGCGGCAUGAGAAGGCACAUGAGGAUCACCCAUGUGUGCAUCCGAG [Eternabot (L1) Solution 91] (Eterna round: R97, puzzle: Brourd's mod of Exclusion 4)" value_reported=28.4

----------
Tested on: MS2 coat protein
Experiment: apparent KD of MS2 coat protein; designed switch direction (-1 OFF switch, 1 ON switch): 1; higher = weaker reporter binding
Details: input ligand: microRNA oligo, concentration not stated
// apparent KD of MS2 coat protein lookup, one value per entry
measured parameter: apparent KD of MS2 coat protein (nM)

chain_sequence="AUCCUAAACACAGGAUAUCCCAGUCAUGAUCUGGGAGAAGGGUGGCCACAUGAGGAUCACCCAUGUGAAGUGCCAGAGGCACGA [MOD3 Xexeraed] (Eterna round: R96, puzzle: Same State NG 1)" subject_of_test="MS2 coat protein" measurement_unit=nM value_reported=359
chain_sequence="ACAUGAGAUAGAGGAUAUGUUGUACCUACAUGUGACAUGAGGAUCACCCAUGUGGUAAGUAUGAUACAGAAGGCUAAGAUAUGU [Equivalance 60 - Jieux - Same State NG 2] (Eterna round: R96, puzzle: Same State NG 2)" subject_of_test="MS2 coat protein" measurement_unit=nM value_reported=19.1
chain_sequence="ACAUGAGAUUUAGGAUAUAUAGUACCUACAUGUGACAUGAGGAUCACCCAUGUGGUAAGUAUGACAUAGAAGGAAAAGAUAUGU [Equivalance 98 - Jieux - Same State NG 2] (Eterna round: R96, puzzle: Same State NG 2)" subject_of_test="MS2 coat protein" measurement_unit=nM value_reported=47.9
chain_sequence="AAAAGAAACACAGGAUAUACCGCAAUUAACACGGUAGAAGGGUGGGACAUGAGGAUCACCCAUGUGACCUGAACACCAGGUCGC [Enrien] (Eterna round: R96, puzzle: Same State NG 1)" subject_of_test="MS2 coat protein" measurement_unit=nM value_reported=17.9

----------
Tested on: MS2 coat protein
Assay: apparent KD of MS2 coat protein; higher = weaker reporter binding
Conditions: Eterna round: R107; input ligand: theophylline 2 mM
Reported apparent KD of MS2 coat protein by item:
measured parameter: apparent KD of MS2 coat protein (nM)

chain_sequence="UCGUGUAUUUCGGAUACCAGUGAAAUCGAUACAUGAGGAUCACCCAUGUGAGAGGAUGUACACCCUUGGCAGCUGUAUAUAUCUG [fgfmullin]" measured_parameter="apparent KD of MS2 coat protein" value_reported=24.8
chain_sequence="CGUAGUAUCAGACAUGAGGAUCACCCAUGUCGAGGACCGGUACGGCCGCCACUCGGCAGUUUGCGUCCUCAGGUACUCCAGGUAA [Larirexea]" measured_parameter="apparent KD of MS2 coat protein" value_reported=26.1
chain_sequence="AUAAUAAAGACGGCCGCCACUAUAAACAUGAGGAACAUGAGGAUCACCCAUGUAUGAGGAUCACCUAGGACCGGGUCAAAUAUUA [AstrosExyTryB#3]" measured_parameter="apparent KD of MS2 coat protein" value_reported=45.9
chain_sequence="AAUGUAUGGCACAUGAGGAUCACCCAUGUGCGAGGACCGGUACGGCCGCCACUCGGUCCUGGGAUCUUAUUACUAUACAUUAAUG [XTryp A #17]" measured_parameter="apparent KD of MS2 coat protein" value_reported=12.5
chain_sequence="AAACAUGAGGAUCACCCAUGUAUGUUAUUACGAGGACCGGUACGGCCGCCACUCGAUAGAGUAGAAGUAAAUUGUAAUUCAUGUU [JR_ExcTryptoA_Sub017]" measured_parameter="apparent KD of MS2 coat protein" value_reported=16.9
chain_sequence="GUCUUGGAAUCGGCCGCCACUACAUGAGGAUCACCCAUGUGGACAAAUAGGGUUUUUAAGCUCGGUAGGACCGGGAUUCGGACAU [Mamaon]" measured_parameter="apparent KD of MS2 coat protein" value_reported=18
chain_sequence="AAAGAUCGGAAACGAUCGGCGGCUUGGGCGCGAGGACCGGUACGGCCGCCACUCGGGAAACAUGAGGAUCACCCAUGUUGCUAGC [ETA NP+V+V2 #15]" measured_parameter="apparent KD of MS2 coat protein" value_reported=16.8
chain_sequence="GAUUGGUAUAGAAGGAGCGUCGAAAAUGGGUAAACAUGAGGAUCACCCAUGUAAAGGGAACGACAGGUAGGUCGCUAUAUUAAUC [AstromonsSSArgB#30]" measured_parameter="apparent KD of MS2 coat protein" value_reported=272
chain_sequence="AGAUUCGACACGGCCGCCACUUGUGGUGGAUUAUCCAGUGUCGAACAUGAGGAUCACCCAUGUACAAGGACCGGGUGUUGAGUCU [XTryp B #19]" measured_parameter="apparent KD of MS2 coat protein" value_reported=96.3
chain_sequence="CUACAUUUGUAGAAACCGGUCAACAUUAUUCGAGGACCGGUACGGCCGCCACUCGUAUAUUUUAAUACAUGAGGAUCACCCAUGU [Tryptophan A 6]" measured_parameter="apparent KD of MS2 coat protein" value_reported=13.6
chain_sequence="AAGUAAACAUGAGCAAAGCUCAUGUGCGAAGGAGCGGCGGAAACGCCAGGUAGGUCGCGCACAUGAGCAUCAGCCAUGUGUGUCA [Omei Arginine B SS A v1]" measured_parameter="apparent KD of MS2 coat protein" value_reported=58.9
chain_sequence="GACCGGUUAUAGUGCGAUUGUCUUGUGGAAGGAGCGCAGAGGACUGCAGGUAGGUCGCCACAUGAGGAUCACCCAUGUCAGGAUA [Tirevete]" measured_parameter="apparent KD of MS2 coat protein" value_reported=43.9

----------
Test system: K4 kissing-loop RNA reporter;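 further: bound reporter read as fluorescence of individual clusters on recovered sequencing chips by microscopy, with normalized cluster intensities fitted with a binding model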
Test: apparent KD of K4 kissing-loop reporter; higher = weaker reporter binding
Details: Eterna round: R107; input ligand: theophylline 20 uM
measured parameter: apparent KD of K4 kissing-loop reporter (nM)

chain_sequence=UGUGUUUACCUGACUCAGUGAUGUUGAGAAGGAGCGUGCAAAAGCACAGGUAGGUCGCUCAACCUAAAUUCAGGUGAGCACUAAA subject_of_test="K4 kissing-loop RNA reporter" measurement_unit=nM value_reported=252
chain_sequence="ACACUCGGCUCGGCCGCCACUCCAGUGAUGUUGGAGUCAUAGCUAUGACGAGAAGAGCGUUUUCGGAGGACCGGGAGCUCACAGG [Leveeder]" subject_of_test="K4 kissing-loop RNA reporter" measurement_unit=nM value_reported=351
chain_sequence=GCCGUAGAUGGAAGGAGCGUGUCCAAACCUCAUUCAUGUACACACGAGUGAUGUUCGUGUACACAGGUAGGUCGCCAUCUACGGC subject_of_test="K4 kissing-loop RNA reporter" measurement_unit=nM value_reported=410
chain_sequence="CUGGGUUGACGAAAAGUCAACAAACGAGAAGGAGCGCACGAAAGUGCAGGUAGGUCGCUCAGUCCAGUGAUGUUGGAACAUCCAG [#SwitchBubble 8 #K4Late]" subject_of_test="K4 kissing-loop RNA reporter" measurement_unit=nM value_reported=508
chain_sequence="UAUCGAGUGAUGUUCGAUGUAGUUCAUUCAGAGGAUAUAGGAUGGGCUAGAAGGCUGAAAAGUGCUUCGAGUGAUGUUCGAAGAU [Exclusion FMN A GF 6]" subject_of_test="K4 kissing-loop RNA reporter" measurement_unit=nM value_reported=40.9

Cited source for all entries: the supplement of paper PMC9170038
